FYI, the data here is from the supplement of paper PMC8728848.

Target: Fuc(a1-3)[Gal(b1-4)]GlcNAc(b1-3)GalNAc
Assay: glycan array binding signal (z-score within array); higher = stronger binding
Settings: glycan notation: IUPAC condensed, linker removed
The full list was thinned out, with the strongest signals kept by preference.
EXPERIMENTAL READOUT: glycan array binding signal (z-score)

BINDER	EXPERIMENTAL READOUT	MEAS VALUE
SalT (Orysata sativa) (protein) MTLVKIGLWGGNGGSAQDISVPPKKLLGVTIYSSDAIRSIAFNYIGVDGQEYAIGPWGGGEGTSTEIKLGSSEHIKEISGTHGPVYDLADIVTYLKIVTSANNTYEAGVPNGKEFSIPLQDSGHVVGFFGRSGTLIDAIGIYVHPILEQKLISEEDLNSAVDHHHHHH	glycan array binding signal (z-score)	-0.301
EUL D1A second (Oryza sativa) (protein) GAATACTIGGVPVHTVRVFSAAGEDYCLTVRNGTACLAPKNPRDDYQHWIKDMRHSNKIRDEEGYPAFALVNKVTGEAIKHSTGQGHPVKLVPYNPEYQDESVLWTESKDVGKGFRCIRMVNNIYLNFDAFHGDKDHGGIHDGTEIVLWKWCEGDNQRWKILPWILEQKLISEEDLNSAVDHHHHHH	glycan array binding signal (z-score)	0.566
Gal 1 (Mus musculus), P16045 (protein) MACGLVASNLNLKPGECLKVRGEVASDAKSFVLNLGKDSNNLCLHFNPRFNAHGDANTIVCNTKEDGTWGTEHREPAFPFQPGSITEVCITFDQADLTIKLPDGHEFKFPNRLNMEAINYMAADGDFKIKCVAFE	glycan array binding signal (z-score)	-0.264
Gal 12 (Homo sapiens), Q96DT0 (protein) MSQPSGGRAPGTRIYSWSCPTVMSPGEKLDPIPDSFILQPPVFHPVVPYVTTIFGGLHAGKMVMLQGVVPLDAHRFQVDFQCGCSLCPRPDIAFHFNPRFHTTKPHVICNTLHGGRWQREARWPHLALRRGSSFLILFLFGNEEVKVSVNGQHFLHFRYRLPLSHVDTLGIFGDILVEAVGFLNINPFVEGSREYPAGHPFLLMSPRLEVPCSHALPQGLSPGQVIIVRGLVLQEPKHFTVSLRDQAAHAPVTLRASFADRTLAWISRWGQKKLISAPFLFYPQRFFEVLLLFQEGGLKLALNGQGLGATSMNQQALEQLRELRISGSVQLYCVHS	glycan array binding signal (z-score)	2.44
